# assay_target: STEP (Homo sapiens, UniProt P54829)
# Sequence (P54829 1-565): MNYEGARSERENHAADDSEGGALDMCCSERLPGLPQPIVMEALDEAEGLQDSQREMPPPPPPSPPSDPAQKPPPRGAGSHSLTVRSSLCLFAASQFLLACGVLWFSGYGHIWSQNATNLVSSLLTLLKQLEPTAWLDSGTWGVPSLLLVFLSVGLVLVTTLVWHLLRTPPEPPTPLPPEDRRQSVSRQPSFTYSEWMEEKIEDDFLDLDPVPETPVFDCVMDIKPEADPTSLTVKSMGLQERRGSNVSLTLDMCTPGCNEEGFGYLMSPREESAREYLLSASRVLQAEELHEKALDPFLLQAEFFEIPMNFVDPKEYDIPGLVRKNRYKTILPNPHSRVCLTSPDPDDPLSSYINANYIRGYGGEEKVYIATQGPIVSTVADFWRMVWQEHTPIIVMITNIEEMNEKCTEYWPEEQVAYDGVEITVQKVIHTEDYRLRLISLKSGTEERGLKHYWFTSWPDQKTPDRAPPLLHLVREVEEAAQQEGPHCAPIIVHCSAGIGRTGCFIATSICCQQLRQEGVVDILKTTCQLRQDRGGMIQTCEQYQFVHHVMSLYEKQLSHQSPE
pIC50: −log10 of the molar value.

# substance_smiles, assay_target, pIC50
records = [
    ("O=C(O)c1ccccc1-c1ccc(/C=c2\\sc3nc4cc(Br)cnc4n3c2=O)o1", "STEP (Homo sapiens, UniProt P54829)", 5.20),
]
